- Tgt: tetanus neurotoxin (TeNT), authentic tetanus holotoxin (Clostridium tetani, UniProt P04958 2-1315)
- Sequence (P04958 2-457 limits assumed, chain 1 of 2): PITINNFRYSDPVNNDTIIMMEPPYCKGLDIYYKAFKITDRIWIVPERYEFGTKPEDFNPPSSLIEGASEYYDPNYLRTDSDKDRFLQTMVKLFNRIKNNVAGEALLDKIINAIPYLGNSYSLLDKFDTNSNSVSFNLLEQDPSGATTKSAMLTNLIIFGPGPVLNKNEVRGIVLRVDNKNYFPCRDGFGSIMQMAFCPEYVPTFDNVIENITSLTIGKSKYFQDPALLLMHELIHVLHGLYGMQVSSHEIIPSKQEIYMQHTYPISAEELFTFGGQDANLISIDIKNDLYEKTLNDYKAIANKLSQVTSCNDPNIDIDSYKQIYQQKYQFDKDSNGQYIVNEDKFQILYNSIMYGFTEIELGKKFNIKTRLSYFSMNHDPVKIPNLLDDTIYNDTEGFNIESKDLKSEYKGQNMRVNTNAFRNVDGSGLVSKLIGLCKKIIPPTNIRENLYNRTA
- Sequence (P04958 458-1315 limits assumed, chain 2 of 2): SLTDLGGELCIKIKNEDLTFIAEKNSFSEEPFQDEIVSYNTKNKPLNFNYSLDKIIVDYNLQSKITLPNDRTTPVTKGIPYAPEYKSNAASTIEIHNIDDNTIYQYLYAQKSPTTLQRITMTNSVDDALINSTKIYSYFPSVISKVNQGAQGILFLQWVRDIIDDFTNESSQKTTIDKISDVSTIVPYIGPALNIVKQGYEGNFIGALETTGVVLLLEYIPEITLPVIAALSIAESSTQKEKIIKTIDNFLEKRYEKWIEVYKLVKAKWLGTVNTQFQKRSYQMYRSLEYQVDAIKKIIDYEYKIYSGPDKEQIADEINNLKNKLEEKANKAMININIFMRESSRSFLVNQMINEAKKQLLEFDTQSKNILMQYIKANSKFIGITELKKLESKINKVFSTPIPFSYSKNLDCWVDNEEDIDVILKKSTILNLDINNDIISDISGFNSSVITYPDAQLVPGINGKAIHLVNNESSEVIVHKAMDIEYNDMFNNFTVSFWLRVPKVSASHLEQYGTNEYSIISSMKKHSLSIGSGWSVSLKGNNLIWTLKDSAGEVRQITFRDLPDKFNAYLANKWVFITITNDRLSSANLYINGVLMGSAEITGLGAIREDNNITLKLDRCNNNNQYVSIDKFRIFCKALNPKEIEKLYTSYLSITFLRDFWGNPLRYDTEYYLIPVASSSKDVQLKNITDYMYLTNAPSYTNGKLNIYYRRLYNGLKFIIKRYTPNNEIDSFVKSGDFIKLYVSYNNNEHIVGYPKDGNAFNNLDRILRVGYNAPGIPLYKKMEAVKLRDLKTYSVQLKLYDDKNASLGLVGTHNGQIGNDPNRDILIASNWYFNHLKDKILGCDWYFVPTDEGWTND
- Assay Protocol: competition ELISA on TeNT, binder biotinylated; competitor SVT02L; note: test concentration or dose not given here
Exercise: state measured % inhibition of binding for each of the binders provided.
Write the answer as a number in %, unit excluded.

Task: Return the recorded % inhibition of binding value; entry: SVT08L (VHH) VHH: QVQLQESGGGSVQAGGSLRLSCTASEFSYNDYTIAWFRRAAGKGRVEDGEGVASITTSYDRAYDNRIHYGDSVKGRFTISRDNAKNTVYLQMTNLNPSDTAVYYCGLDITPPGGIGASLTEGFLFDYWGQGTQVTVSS
Result: 7

Task: Return the recorded % inhibition of binding value; entry: SVT03L (VHH) VHH: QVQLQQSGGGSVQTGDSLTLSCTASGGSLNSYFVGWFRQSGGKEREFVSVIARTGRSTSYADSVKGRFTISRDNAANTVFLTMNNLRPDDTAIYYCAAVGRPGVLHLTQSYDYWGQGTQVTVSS
Result: 10

Task: Return the recorded % inhibition of binding value; entry: SVT15L-3FW4M (VHH) VHH: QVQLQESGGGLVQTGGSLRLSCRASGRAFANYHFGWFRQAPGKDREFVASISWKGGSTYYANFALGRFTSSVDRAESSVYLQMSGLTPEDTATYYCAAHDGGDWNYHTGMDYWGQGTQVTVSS
Result: 10

Task: Return the recorded % inhibition of binding value; entry: SVT13L (VHH) VHH: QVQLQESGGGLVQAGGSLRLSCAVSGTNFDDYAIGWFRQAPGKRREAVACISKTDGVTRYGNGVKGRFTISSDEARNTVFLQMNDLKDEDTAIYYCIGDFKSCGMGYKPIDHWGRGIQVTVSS
Result: 7
